System: Caupolican (Caup) homeodomain DNA-binding domain
Sequence: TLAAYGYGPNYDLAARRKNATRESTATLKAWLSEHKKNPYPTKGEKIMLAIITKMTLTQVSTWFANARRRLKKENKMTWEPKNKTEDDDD
Assay: PBM E-score (8-mer, recovered from the published 9-mer minima) (E-score (dimensionless, -0.5 to 0.5)); higher = stronger relative binding preference, active = 0.31 or more
This excerpt belongs to a sample that is enriched for hits. The true hit rate is not given.
Entries and their measured PBM E-score follow.

residue.sequence: AGACATGG
subject.of.test: Caupolican (Caup) homeodomain DNA-binding domain
PBM E-score: 0.329
--
residue.sequence: ACCCCGCA
subject.of.test: Caupolican (Caup) homeodomain DNA-binding domain
PBM E-score: -0.142
--
residue.sequence: ACCACATG
subject.of.test: Caupolican (Caup) homeodomain DNA-binding domain
PBM E-score: 0.212
--
residue.sequence: ATGTATGG
subject.of.test: Caupolican (Caup) homeodomain DNA-binding domain
PBM E-score: 0.157
--
residue.sequence: AGCGCGGC
subject.of.test: Caupolican (Caup) homeodomain DNA-binding domain
PBM E-score: -0.184
--
residue.sequence: AGACATGA
subject.of.test: Caupolican (Caup) homeodomain DNA-binding domain
PBM E-score: 0.341
--
residue.sequence: CTGTTTAA
subject.of.test: Caupolican (Caup) homeodomain DNA-binding domain
PBM E-score: 0.111
--
residue.sequence: ACTGCCGG
subject.of.test: Caupolican (Caup) homeodomain DNA-binding domain
PBM E-score: -0.163
--
residue.sequence: ATAGTCGG
subject.of.test: Caupolican (Caup) homeodomain DNA-binding domain
PBM E-score: -0.0656
--
residue.sequence: GAAGTCAA
subject.of.test: Caupolican (Caup) homeodomain DNA-binding domain
PBM E-score: -0.0438
--
residue.sequence: AGACATCG
subject.of.test: Caupolican (Caup) homeodomain DNA-binding domain
PBM E-score: 0.0873
--
residue.sequence: ATGTTTAA
subject.of.test: Caupolican (Caup) homeodomain DNA-binding domain
PBM E-score: 0.367
--
residue.sequence: CCATGGAC
subject.of.test: Caupolican (Caup) homeodomain DNA-binding domain
PBM E-score: -0.0492
--
residue.sequence: CGACATGC
subject.of.test: Caupolican (Caup) homeodomain DNA-binding domain
PBM E-score: 0.386
--
residue.sequence: ACGTTCGG
subject.of.test: Caupolican (Caup) homeodomain DNA-binding domain
PBM E-score: -0.177
--
residue.sequence: ATGTTTTA
subject.of.test: Caupolican (Caup) homeodomain DNA-binding domain
PBM E-score: 0.369
--
residue.sequence: ATGTTTTC
subject.of.test: Caupolican (Caup) homeodomain DNA-binding domain
PBM E-score: 0.33
--
residue.sequence: GTGTATAA
subject.of.test: Caupolican (Caup) homeodomain DNA-binding domain
PBM E-score: 0.202
--
residue.sequence: AGCTTCCC
subject.of.test: Caupolican (Caup) homeodomain DNA-binding domain
PBM E-score: -0.188
--
residue.sequence: ATGTATAC
subject.of.test: Caupolican (Caup) homeodomain DNA-binding domain
PBM E-score: 0.356
--
residue.sequence: ATGTATAG
subject.of.test: Caupolican (Caup) homeodomain DNA-binding domain
PBM E-score: 0.276
--
residue.sequence: ACATGGAA
subject.of.test: Caupolican (Caup) homeodomain DNA-binding domain
PBM E-score: 0.296
--
residue.sequence: CGACATGA
subject.of.test: Caupolican (Caup) homeodomain DNA-binding domain
PBM E-score: 0.395
--
residue.sequence: GTGTTTTA
subject.of.test: Caupolican (Caup) homeodomain DNA-binding domain
PBM E-score: 0.213
--
residue.sequence: CCGCAGAA
subject.of.test: Caupolican (Caup) homeodomain DNA-binding domain
PBM E-score: -0.0611
--
residue.sequence: ATGTATAA
subject.of.test: Caupolican (Caup) homeodomain DNA-binding domain
PBM E-score: 0.344
--
residue.sequence: GTGTATGA
subject.of.test: Caupolican (Caup) homeodomain DNA-binding domain
PBM E-score: 0.249
--
residue.sequence: CATCCTGA
subject.of.test: Caupolican (Caup) homeodomain DNA-binding domain
PBM E-score: 0.007
--
residue.sequence: AGACATTA
subject.of.test: Caupolican (Caup) homeodomain DNA-binding domain
PBM E-score: 0.201
--
residue.sequence: CCTACATA
subject.of.test: Caupolican (Caup) homeodomain DNA-binding domain
PBM E-score: 0.153
--
residue.sequence: ACTACATC
subject.of.test: Caupolican (Caup) homeodomain DNA-binding domain
PBM E-score: 0.33
--
residue.sequence: CTGTTTTA
subject.of.test: Caupolican (Caup) homeodomain DNA-binding domain
PBM E-score: 0.107
--
residue.sequence: GCTACATA
subject.of.test: Caupolican (Caup) homeodomain DNA-binding domain
PBM E-score: 0.248
--
residue.sequence: GCTAGGCC
subject.of.test: Caupolican (Caup) homeodomain DNA-binding domain
PBM E-score: -0.238
--
residue.sequence: CCTACATC
subject.of.test: Caupolican (Caup) homeodomain DNA-binding domain
PBM E-score: 0.144
--
residue.sequence: CAAACTGC
subject.of.test: Caupolican (Caup) homeodomain DNA-binding domain
PBM E-score: -0.0256
--
residue.sequence: AGACATCA
subject.of.test: Caupolican (Caup) homeodomain DNA-binding domain
PBM E-score: 0.197
--
residue.sequence: AGACATAG
subject.of.test: Caupolican (Caup) homeodomain DNA-binding domain
PBM E-score: 0.164
--
residue.sequence: GTTTTTGA
subject.of.test: Caupolican (Caup) homeodomain DNA-binding domain
PBM E-score: 0.084
--
residue.sequence: CGACATTA
subject.of.test: Caupolican (Caup) homeodomain DNA-binding domain
PBM E-score: 0.202
--
residue.sequence: ACTACATG
subject.of.test: Caupolican (Caup) homeodomain DNA-binding domain
PBM E-score: 0.428
--
residue.sequence: ATGTTTAG
subject.of.test: Caupolican (Caup) homeodomain DNA-binding domain
PBM E-score: 0.284
--
residue.sequence: ATGTATGA
subject.of.test: Caupolican (Caup) homeodomain DNA-binding domain
PBM E-score: 0.352
--
residue.sequence: CAGCCGCA
subject.of.test: Caupolican (Caup) homeodomain DNA-binding domain
PBM E-score: -0.26
--
residue.sequence: CCTTAAGG
subject.of.test: Caupolican (Caup) homeodomain DNA-binding domain
PBM E-score: -0.154
--
residue.sequence: CTGTTTGA
subject.of.test: Caupolican (Caup) homeodomain DNA-binding domain
PBM E-score: 0.188

###

System: Caupolican (Caup) homeodomain DNA-binding domain
Sequence: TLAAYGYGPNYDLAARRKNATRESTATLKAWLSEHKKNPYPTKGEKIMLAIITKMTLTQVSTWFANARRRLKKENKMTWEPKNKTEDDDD
Assay: PBM E-score (8-mer, recovered from the published 9-mer minima) (E-score (dimensionless, -0.5 to 0.5)); higher = stronger relative binding preference, active = 0.31 or more
This is one part of a sample in which hits are shown more often than they occur. The true hit rate is not given.
PBM E-score values by entry

residue.sequence: ATGTACGG
PBM E-score: 0.211
//
residue.sequence: ATGTACTC
PBM E-score: 0.303
//
residue.sequence: CCTTCTAC
PBM E-score: -0.131
//
residue.sequence: ATGTACGA
PBM E-score: 0.395
//
residue.sequence: CGTACTGC
PBM E-score: -0.0592
//
residue.sequence: CTGTACGA
PBM E-score: 0.203
//
residue.sequence: ATGTACTA
PBM E-score: 0.398
//
residue.sequence: ACGTACCT
PBM E-score: 0.0612
//
residue.sequence: AAGTACTA
PBM E-score: 0.197
//
residue.sequence: ACGCGCTC
PBM E-score: -0.0722
//
residue.sequence: ATGTACCC
PBM E-score: 0.263

###

System: Caupolican (Caup) homeodomain DNA-binding domain
Sequence: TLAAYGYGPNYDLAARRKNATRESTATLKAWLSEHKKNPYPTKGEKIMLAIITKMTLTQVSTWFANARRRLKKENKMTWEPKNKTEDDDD
Assay: PBM E-score (8-mer, recovered from the published 9-mer minima) (E-score (dimensionless, -0.5 to 0.5)); Drosophila protein; higher = stronger relative binding preference, active = 0.31 or more
The full list was thinned out, with hits kept by preference. No count for the full screen is at hand.
In this section we review reported PBM E-score values for a set of sequences.
experimental.endpoint: PBM E-score

residue.sequence: AGGGCAGC
value.reported: -0.267
--
residue.sequence: ACAGAAGA
value.reported: 0.101
--
residue.sequence: ACATAAAG
value.reported: 0.215
--
residue.sequence: TGAGGCAA
value.reported: -0.0847
--
residue.sequence: ACATGACC
value.reported: 0.303
--
residue.sequence: CCATGACA
value.reported: 0.137
--
residue.sequence: ACATACAT
value.reported: 0.427
--
residue.sequence: GAATGACA
value.reported: 0.259
--
residue.sequence: TAATGACA
value.reported: 0.331
--
residue.sequence: CAATGACA
value.reported: 0.293
--
residue.sequence: AAGGGGTG
value.reported: -0.101
--
residue.sequence: GATTGACA
value.reported: 0.276
--
residue.sequence: ACATGACT
value.reported: 0.374
--
residue.sequence: AGATACAG
value.reported: 0.109
--
residue.sequence: TCATACAA
value.reported: 0.163
--
residue.sequence: CCCGTTAC
value.reported: 0.0202
--
residue.sequence: TATTGACA
value.reported: 0.322
--
residue.sequence: ACATAAAA
value.reported: 0.221
--
residue.sequence: ACATAAAT
value.reported: 0.318
--
residue.sequence: ACATGACG
value.reported: 0.297
--
residue.sequence: AGATACAA
value.reported: 0.296
--
residue.sequence: GGCTAGGA
value.reported: -0.114

Data credit: the supplement of paper PMC3724861
